- Tgt: Voltage-gated potassium channel subunit beta-2 (Rattus norvegicus) (UniProt P62483)
- Sequence (P62483 whole entry, looked up): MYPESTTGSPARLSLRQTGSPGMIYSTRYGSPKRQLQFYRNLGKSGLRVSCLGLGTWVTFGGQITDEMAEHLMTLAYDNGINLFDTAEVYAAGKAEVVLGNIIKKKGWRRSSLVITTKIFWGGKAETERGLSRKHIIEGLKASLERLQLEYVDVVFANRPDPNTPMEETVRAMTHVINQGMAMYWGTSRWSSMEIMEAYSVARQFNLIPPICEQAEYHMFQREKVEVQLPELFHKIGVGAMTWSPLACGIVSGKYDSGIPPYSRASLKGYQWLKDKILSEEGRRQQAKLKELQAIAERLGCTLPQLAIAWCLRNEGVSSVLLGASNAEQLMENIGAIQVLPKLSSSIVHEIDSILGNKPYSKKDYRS
- Assay Procedure: enhancers of rat Kvbeta2 NADPH turnover – biochemical, NADPH fluorescence, primary screen (AID 623);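 note: fluorescence intensity change per second fitted from 20 to 320 s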
- Assay Context: Recombinant KvBeta, NADPH fluorescence decrease slope, 10 min; at 10 µM; stronger effect = lower value
Attribute Measured: NADPH fluorescence slope
Lab note: record just the number, no unit beside it.

# example entries with known answers
Compound | NADPH fluorescence slope
CCC(=O)N1CCNC(=O)C1CC(=O)Nc1ccc(C)c(Cl)c1 (stereo unspecified) | 1.7e-05
O=C(C1CCN(c2nnc(-n3cccc3)s2)CC1)N1CCN(Cc2ccc3c(c2)OCO3)CC1 | -2e-05
COc1cccc(NC(=O)N2CCC(N3CCCCC3)CC2)c1 | 2.5e-05

Enquiry: What does the data say about its NADPH fluorescence slope? Entry: Cn1c(=O)[nH]c(=O)c2c1nc(NCCCn1ccnc1)n2Cc1ccccc1
Return: -3.4e-05

Enquiry: Record request: NADPH fluorescence slope value, item Cc1ccc(C(=O)OCC(=O)c2ccc(Cl)s2)s1
Return: 0.000104

Enquiry: If you can, please state the reported NADPH fluorescence slope value of O=C(Nc1sccc1C(=O)NCc1ccco1)c1cccnc1 .
Return: -3.3e-05

----------
- Tgt: Alpha-2C adrenergic receptor (Homo sapiens)
- Assay Procedure: compounds altering alpha2C-coupled GIRK flux – cell-based, HEK293 alpha2C/GIRK1/2, thallium flux, primary screen (AID 624);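 note: slope of fluorescence ratio to pre-addition baseline per second over 15 to 24 s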
- Assay Context: thallium flux BTC fluorescence, at 10 µM, actives lie on both sides
Attribute Measured: slope
No unit in the answer, please; the number alone is enough.

Below, 3 compounds whose answers are already recorded.
Compound | slope
COc1ccc(CCN2C(=O)CC(N3CCOCC3)C2=O)cc1 (stereo unspecified) | 0.00402
CCN(C(C)=O)c1nnc(CSc2nc3ccccc3s2)s1 | 0.00523
COc1cc(C(=O)N(C)c2nnc(-c3cccnc3)s2)cc(OC)c1OC | 0.00473

Enquiry: Look at this compound and give its reported slope. CCOC(=O)CSc1nc2ccccc2n1CC(=O)N1CCN(c2ccccc2)CC1
Return: 0.00504

Enquiry: Consider the compound shown here: CCCNC(=O)c1cc(S(=O)(=O)N2CCc3ccccc32)ccc1F What is its recorded slope?
Return: 0.00573

Enquiry: Any idea what slope was measured for Cc1cc(C)nc(N2CCC(C(=O)Nc3ccc4c(c3)CCC4)CC2)n1 ?
Return: 0.00372

Enquiry: Would you mind telling me what slope value was observed for COc1ccccc1C(=O)NCC(=O)Nc1ccccc1 ?
Return: 0.00528

Enquiry: Recorded slope for COCCOC(=O)C1=C(N)OC2=C(C(=O)CC(C)(C)C2)C1c1cccnc1 (stereo unspecified) , please?
Return: 0.00687

Enquiry: What does the record list as slope for CC1CN(C(=O)CSc2ncnc3sccc23)CC(C)O1 (stereo unspecified) ?
Return: 0.0052

Enquiry: Recorded slope of COc1ccc(NC(=O)Nc2ccccc2C)c(OC)c1 , please.
Return: 0.00603

Enquiry: // lookup slope for CCn1c(CSc2nnc(-c3cccnc3)n2-c2ccccc2C)nc2cc(C(=O)O)ccc21
Return: 0.00507

----------
nuclei count listing for selected compounds.
- Assay Procedure: endothelial E-selectin expression blockers – imaging, HUVEC, immunofluorescence, MLSMR starter and 10KST1 sets, primary screen (AID 487);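 note: 100% = median nuclei count of all wells on the same plate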
- Assay Context: HUVEC TNFalpha-induced E-selectin immunofluorescence imaging, at 2 µM; measured here: cell number, toxicity
Use % as the unit, but write only the number.

// below: answered compounds
Compound | Reading
Cc1cc(C)n2nc(SCc3nc4ccccc4[nH]3)nc2n1 | 117
COc1ccccc1C(=O)N1CCN(CCc2ccccc2)CC1 | 104
Cc1ccc(N2CC(C(=O)Nc3nnc(C)s3)CC2=O)cc1 (stereo not drawn) | 103
CC(=O)Nc1ccc(NC(=O)c2ccccc2N(C)S(C)(=O)=O)cc1 | 94.4
CC(=O)N1C(=O)N(C)C2C1N(C(C)=O)C(=O)N2C (stereo not drawn) | 98.6

Enquiry: Form field: reported nuclei count of CCOC(=O)C1CCCN(C(=O)c2cccs2)C1 (stereo not drawn)
Return: 104

Enquiry: Sample Cc1ccc2oc(=O)c3cnn(CC(=O)N4CCCCC4C)c3c2c1 (stereo not drawn) — what was its nuclei count?
Return: 88.1

Enquiry: For the compound shown here, CN(C)CCCN1C(=O)c2oc3ccc(Cl)cc3c(=O)c2C1c1cccnc1 (stereo not drawn) , give the reported nuclei count.
Return: 122

Enquiry: Fill blank: measured nuclei count of the compound O=C1C2CCCN2C(c2ccccc2)N1c1ccc(Cl)cc1 (stereo not drawn) is ____.
Return: 114

Enquiry: Please give the measured nuclei count for this compound: CC(C)(C)c1cc(NC(=O)c2cc(F)c(F)c(F)c2F)no1
Return: 112

Enquiry: Recorded nuclei count for O=C(CSc1ncn[nH]1)NC1CC2CCC1C2 (stereo not drawn) , please?
Return: 53
